Tested on: 874868-142-R-J2-PDC complex spheroids, growth % test/control
TEST_DESCRIPTION: Anticancer human tumor 874868-142-R-J2-PDC patient-derived head and neck squamous carcinoma cell line growth inhibition [CLK]
EXPERIMENTAL_CONTEXT: second compound 0.0316 µM; first compound 0.000949 µM; active compounds read low
// viability, T/C lookup, one value per entry
A number alone suffices; assume %.

{"MOLECULE": "CC(C)CC(NC(=O)C(Cc1ccccc1)NC(=O)c1cnccn1)B(O)O (centres undefined) + CN1CCN(c2cc(C(=O)Nc3cc4cc(-c5cnn(C)c5)ccc4cn3)ccn2)CC1", "viability, T/C / %": 79.4}
{"MOLECULE": "C=CC(=O)Nc1cc(Nc2nccc(-c3cn(C)c4ccccc34)n2)c(OC)cc1N(C)CCN(C)C + CN1CCN(c2cc(C(=O)Nc3cc4cc(-c5cnn(C)c5)ccc4cn3)ccn2)CC1", "viability, T/C / %": 84.1}
{"MOLECULE": "C=CC(=O)Nc1cc(Nc2nccc(-c3cn(C)c4ccccc34)n2)c(OC)cc1N(C)CCN(C)C + CNC(=O)c1ccc(Nc2nc(OC3CCCC3)c3c(-c4ccc5nc(C)oc5c4)c[nH]c3n2)c(OC)c1", "viability, T/C / %": 101}

Query :: Quickly give me recorded viability, T/C for CC(C)CC(NC(=O)C(Cc1ccccc1)NC(=O)c1cnccn1)B(O)O (centres undefined) + CNC(=O)c1ccc(Nc2nc(OC3CCCC3)c3c(-c4ccc5nc(C)oc5c4)c[nH]c3n2)c(OC)c1
Result :: 96.8

* * *

// viability, T/C lookup, one value per entry
System: 874868-142-R-J2-PDC complex spheroids, growth % test/control
TEST_DESCRIPTION: Anticancer human tumor 874868-142-R-J2-PDC cell line growth inhibition [CLK];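 further: spheroids exposed to the compounds for 7 days; 100% = DMSO vehicle control viability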
EXPERIMENTAL_CONTEXT: second compound 0.316 µM; first compound 0.1 µM; active compounds read low

{"MOLECULE": "COc1cccc2c1C(=O)c1c(O)c3c(c(O)c1C2=O)CC(O)(C(=O)CO)CC3OC1CC(N)C(O)C(C)O1 (stereo not given) + CN1CCN(c2cc(C(=O)Nc3cc4cc(-c5cnn(C)c5)ccc4cn3)ccn2)CC1", "viability, T/C": "12.6%"}
{"MOLECULE": "CCCS(=O)(=O)Nc1ccc(F)c(C(=O)c2c[nH]c3ncc(-c4ccc(Cl)cc4)cc23)c1F + CNC(=O)c1ccc(Nc2nc(OC3CCCC3)c3c(-c4ccc5nc(C)oc5c4)c[nH]c3n2)c(OC)c1", "viability, T/C": "59.6%"}
{"MOLECULE": "O=C(c1cc(Cc2n[nH]c(=O)c3ccccc23)ccc1F)N1CCN(C(=O)C2CC2)CC1 + CN1CCN(c2cc(C(=O)Nc3cc4cc(-c5cnn(C)c5)ccc4cn3)ccn2)CC1", "viability, T/C": "20.9%"}
{"MOLECULE": "C#Cc1c(F)ccc2cc(O)cc(-c3ncc4c(N5CC6CCC(C5)N6)nc(OCC56CCCN5CC(F)C6)nc4c3F)c12 (stereo not given) + CNC(=O)c1ccc(Nc2nc(OC3CCCC3)c3c(-c4ccc5nc(C)oc5c4)c[nH]c3n2)c(OC)c1", "viability, T/C": "48.5%"}

// moving on: another record for viability, T/C
Query :: Quickly give me recorded viability, T/C for CCc1c2c(nc3ccc(O)cc13)-c1cc3c(c(=O)n1C2)COC(=O)[C@]3(O)CC + CN1CCN(c2cc(C(=O)Nc3cc4cc(-c5cnn(C)c5)ccc4cn3)ccn2)CC1
Result :: 1.25%

* * *

Tested on: 874868-142-R-J2-PDC complex spheroids, growth % test/control
TEST_DESCRIPTION: Anticancer human tumor 874868-142-R-J2-PDC cell line growth inhibition [CLK];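 further: spheroids exposed to the compounds for 7 days; 100% = DMSO vehicle control viability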
EXPERIMENTAL_CONTEXT: second compound 0.0316 µM; first compound 0.01 µM; active compounds read low
// viability, T/C lookup, one value per entry

{"COMPOUND": "COc1c(OCCCN2CCOCC2)ccc2c3n(c(=NC(=O)c4cnc(N)nc4)nc12)CCN3 + CN1CCN(c2cc(C(=O)Nc3cc4cc(-c5cnn(C)c5)ccc4cn3)ccn2)CC1", "READOUT_LABEL": "viability, T/C", "VALUE_OBSERVED": "44.8%"}
{"COMPOUND": "CCN1CCN(Cc2ccc(Nc3ncc(F)c(-c4cc(F)c5nc(C)n(C(C)C)c5c4)n3)nc2)CC1 + CNC(=O)c1ccc(Nc2nc(OC3CCCC3)c3c(-c4ccc5nc(C)oc5c4)c[nH]c3n2)c(OC)c1", "READOUT_LABEL": "viability, T/C", "VALUE_OBSERVED": "103%"}
{"COMPOUND": "Cn1ncnc1[C@H]1c2n[nH]c(=O)c3cc(F)cc(c23)N[C@@H]1c1ccc(F)cc1 + CN1CCN(c2cc(C(=O)Nc3cc4cc(-c5cnn(C)c5)ccc4cn3)ccn2)CC1", "READOUT_LABEL": "viability, T/C", "VALUE_OBSERVED": "89.2%"}
{"COMPOUND": "CCc1c2c(nc3ccc(O)cc13)-c1cc3c(c(=O)n1C2)COC(=O)[C@]3(O)CC + CN1CCN(c2cc(C(=O)Nc3cc4cc(-c5cnn(C)c5)ccc4cn3)ccn2)CC1", "READOUT_LABEL": "viability, T/C", "VALUE_OBSERVED": "37.1%"}
{"COMPOUND": "CCc1c2c(nc3ccc(O)cc13)-c1cc3c(c(=O)n1C2)COC(=O)[C@]3(O)CC + CNC(=O)c1ccc(Nc2nc(OC3CCCC3)c3c(-c4ccc5nc(C)oc5c4)c[nH]c3n2)c(OC)c1", "READOUT_LABEL": "viability, T/C", "VALUE_OBSERVED": "44%"}
{"COMPOUND": "CCN1CCN(Cc2ccc(Nc3ncc(F)c(-c4cc(F)c5nc(C)n(C(C)C)c5c4)n3)nc2)CC1 + CN1CCN(c2cc(C(=O)Nc3cc4cc(-c5cnn(C)c5)ccc4cn3)ccn2)CC1", "READOUT_LABEL": "viability, T/C", "VALUE_OBSERVED": "65%"}

// moving on: another record for viability, T/C
Query :: Report value only: viability, T/C, 874868-142-R-J2-PDC complex spheroids, growth % test/control, Cn1ncnc1[C@H]1c2n[nH]c(=O)c3cc(F)cc(c23)N[C@@H]1c1ccc(F)cc1 + CNC(=O)c1ccc(Nc2nc(OC3CCCC3)c3c(-c4ccc5nc(C)oc5c4)c[nH]c3n2)c(OC)c1
Result :: 94.6%

* * *

// viability, T/C lookup, one value per entry
Tested on: 874868-142-R-J2-PDC complex spheroids, growth % test/control
TEST_DESCRIPTION: Anticancer human tumor 874868-142-R-J2-PDC cell line growth inhibition [CLK];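 further: spheroids exposed to the compounds for 7 days; 100% = DMSO vehicle control viability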
EXPERIMENTAL_CONTEXT: second compound 3.16 µM; first compound 0.03 µM; active compounds read low
A number alone suffices; assume %.

Solved cases below.
{"MOLECULE": "NC(=O)C(=Cn1cnc(-c2cc(C(F)(F)F)cc(C(F)(F)F)c2)n1)c1cncnc1 + CN1CCN(c2cc(C(=O)Nc3cc4cc(-c5cnn(C)c5)ccc4cn3)ccn2)CC1", "viability, T/C (%)": 0.31}
{"MOLECULE": "C=CC(=O)Nc1cc(Nc2nccc(-c3cn(C)c4ccccc34)n2)c(OC)cc1N(C)CCN(C)C + CNC(=O)c1ccc(Nc2nc(OC3CCCC3)c3c(-c4ccc5nc(C)oc5c4)c[nH]c3n2)c(OC)c1", "viability, T/C (%)": 31.5}

// moving on: another record for viability, T/C
Query :: Report value only: viability, T/C, 874868-142-R-J2-PDC complex spheroids, growth % test/control, C=CC(=O)Nc1cc(Nc2nccc(-c3cn(C)c4ccccc34)n2)c(OC)cc1N(C)CCN(C)C + CN1CCN(c2cc(C(=O)Nc3cc4cc(-c5cnn(C)c5)ccc4cn3)ccn2)CC1
Result :: 0.66

* * *

System: 874868-142-R-J2-PDC complex spheroids, growth % test/control
TEST_DESCRIPTION: Anticancer human tumor 874868-142-R-J2-PDC cell line growth inhibition [CLK];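 further: spheroids exposed to the compounds for 7 days; 100% = DMSO vehicle control viability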
EXPERIMENTAL_CONTEXT: second compound 1 µM; first compound 0.316 µM; active compounds read low
READOUT_LABEL: viability, T/C (%)
A number alone suffices; assume %.

{"MOLECULE": "CCN1CCN(Cc2ccc(Nc3ncc(F)c(-c4cc(F)c5nc(C)n(C(C)C)c5c4)n3)nc2)CC1 + CNC(=O)c1ccc(Nc2nc(OC3CCCC3)c3c(-c4ccc5nc(C)oc5c4)c[nH]c3n2)c(OC)c1", "viability, T/C, %": 67.9}

Query :: Quickly give me recorded viability, T/C for CC1(C)CCC(CN2CCN(c3ccc(C(=O)NS(=O)(=O)c4ccc(NCC5CCOCC5)c([N+](=O)[O-])c4)c(Oc4cnc5[nH]ccc5c4)c3)CC2)=C(c2ccc(Cl)cc2)C1 + CN1CCN(c2cc(C(=O)Nc3cc4cc(-c5cnn(C)c5)ccc4cn3)ccn2)CC1
Result :: 0.38

Query :: Quickly give me recorded viability, T/C for O=c1[nH]cc(F)c(=O)[nH]1 + CN1CCN(c2cc(C(=O)Nc3cc4cc(-c5cnn(C)c5)ccc4cn3)ccn2)CC1
Result :: 0.25

Query :: Quickly give me recorded viability, T/C for COC1C=CCC(C)C(C)S(=O)(=O)NC(=O)c2ccc3c(c2)N(CC2CCC21)CC1(CCCc2cc(Cl)ccc21)CO3 (stereo unspecified) + CN1CCN(c2cc(C(=O)Nc3cc4cc(-c5cnn(C)c5)ccc4cn3)ccn2)CC1
Result :: 1.14

Query :: Quickly give me recorded viability, T/C for COc1ccc([C@@H](O)c2cc(-c3ncnc4cc(N5CCOCC5)ccc34)c(F)cc2Cl)nn1 + CNC(=O)c1ccc(Nc2nc(OC3CCCC3)c3c(-c4ccc5nc(C)oc5c4)c[nH]c3n2)c(OC)c1
Result :: 40

Query :: Quickly give me recorded viability, T/C for COc1cccc2c1C(=O)c1c(O)c3c(c(O)c1C2=O)CC(O)(C(=O)CO)CC3OC1CC(N)C(O)C(C)O1 (stereo unspecified) + CN1CCN(c2cc(C(=O)Nc3cc4cc(-c5cnn(C)c5)ccc4cn3)ccn2)CC1
Result :: 0.41

Query :: Quickly give me recorded viability, T/C for CC(CO)NC(=O)c1cc(-c2ccc(Cl)cc2)nn(-c2cnn(C)c2)c1=O (stereo unspecified) + CNC(=O)c1ccc(Nc2nc(OC3CCCC3)c3c(-c4ccc5nc(C)oc5c4)c[nH]c3n2)c(OC)c1
Result :: 34.9

Query :: Quickly give me recorded viability, T/C for COc1ccc([C@@H](O)c2cc(-c3ncnc4cc(N5CCOCC5)ccc34)c(F)cc2Cl)nn1 + CN1CCN(c2cc(C(=O)Nc3cc4cc(-c5cnn(C)c5)ccc4cn3)ccn2)CC1
Result :: 2.66

Query :: Quickly give me recorded viability, T/C for Nc1ccccc1NC(=O)c1ccc(CNC(=O)OCc2cccnc2)cc1 + CNC(=O)c1ccc(Nc2nc(OC3CCCC3)c3c(-c4ccc5nc(C)oc5c4)c[nH]c3n2)c(OC)c1
Result :: 52.1

Query :: Quickly give me recorded viability, T/C for CC(CO)NC(=O)c1cc(-c2ccc(Cl)cc2)nn(-c2cnn(C)c2)c1=O (stereo unspecified) + CN1CCN(c2cc(C(=O)Nc3cc4cc(-c5cnn(C)c5)ccc4cn3)ccn2)CC1
Result :: 2.66

Query :: Quickly give me recorded viability, T/C for Nc1ccn(C2OC(CO)C(O)C2(F)F)c(=O)n1 (stereo unspecified) + CNC(=O)c1ccc(Nc2nc(OC3CCCC3)c3c(-c4ccc5nc(C)oc5c4)c[nH]c3n2)c(OC)c1
Result :: 33.6
